Source of measurements: patent US20150045540A1

target: Hepatocyte Growth Factor (HGF), human (human, UniProt P14210 32-728); assay: ELISA
Sequence (P14210 32-728): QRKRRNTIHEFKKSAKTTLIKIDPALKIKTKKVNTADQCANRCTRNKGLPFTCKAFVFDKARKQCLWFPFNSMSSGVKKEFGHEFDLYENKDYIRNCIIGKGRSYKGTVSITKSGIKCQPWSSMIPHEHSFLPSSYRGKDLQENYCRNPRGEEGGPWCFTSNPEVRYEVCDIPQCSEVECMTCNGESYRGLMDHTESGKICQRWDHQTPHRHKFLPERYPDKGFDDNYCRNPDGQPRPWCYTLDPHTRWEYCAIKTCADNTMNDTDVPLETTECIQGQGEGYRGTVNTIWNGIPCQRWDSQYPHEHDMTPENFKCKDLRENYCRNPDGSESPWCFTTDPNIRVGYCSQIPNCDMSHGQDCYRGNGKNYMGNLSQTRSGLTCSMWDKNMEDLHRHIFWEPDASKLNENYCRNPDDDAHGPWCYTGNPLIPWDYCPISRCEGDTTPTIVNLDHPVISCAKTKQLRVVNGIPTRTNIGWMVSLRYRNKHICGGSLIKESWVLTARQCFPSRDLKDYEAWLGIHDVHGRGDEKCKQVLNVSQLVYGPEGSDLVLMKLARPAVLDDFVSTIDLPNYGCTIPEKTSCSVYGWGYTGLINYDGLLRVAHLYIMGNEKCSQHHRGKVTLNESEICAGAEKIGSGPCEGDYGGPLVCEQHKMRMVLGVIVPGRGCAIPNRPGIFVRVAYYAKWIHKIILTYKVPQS
RESULT TYPE: pEC50
Reminder that pEC50 means the negative base-10 logarithm of the concentration expressed in mol/L.

Req: Request the reported pEC50 associated with HC 8/SLC 3 (antibody) chain 1: GQGTLVTVSSASTKGPSVQPVLHQPPAMSSALGTTIRLTCTLRNDHDIGVYSVYWYQQRPGHPPRFLLRYFSQSDKSQGPQVPPRFSGSKDVARNRGYLSISELQPEDEAMYYCAMGARSRCWPRGFQSKHNSVTHVFGSGTQLTVLSQPKATPSVTLFPPSSEELQANKATLVCLMNDFYPGILTVTWKADGTPITQGVEMTTPSKQSNNKYAASSYLSLTPEQWRSRRSYSCQVMHEGSTVEKTVAPAECS chain 2: MSWAPVLLMLFVYCTGCGPQPVLHQPPAMSSALGTTIRLTCTLRNDHDIGVYSVYWYQQRPGHPPRFLLRYFSQSDKSQGPQVPPRFSGSKDVARNRGYLSISVTHVFGSGTQLTVLSQPQVQLVQ
Resp: 10.15
